Test system: cancer cell lines from the cancer cell line encyclopedia (CCLE)
test_name: Cell line profiling (CLiP) proliferation experiment
Format: cell-based
run_parameters: Homo sapiens, Hs 294T, cell line Hs 294T, skin; read-out: Crossing Point
measurement_type: IC50

[[record]]
molecule = "CC(C)[C@@]12C[C@@H](O)[C@@](C)(O1)[C@@H]1CC[C@@H](C)[C@H]1[C@@H]2OC(=O)/C=C/c1ccccc1 [Englerin B]"
target_of_assay = "cancer cell lines from the cancer cell line encyclopedia (CCLE)"
result = "> 30 µM"


----------
Test system: cancer cell lines from the cancer cell line encyclopedia (CCLE)
test_name: Cell line profiling (CLiP) proliferation experiment
Type: cell-based
run_parameters: Homo sapiens, IMR-32, IMR-32; read-out: Crossing Point
measurement_type: IC50 (µM)

[[record]]
compound = "CC(C)[C@@]12C[C@@H](O)[C@@](C)(O1)[C@@H]1CC[C@@H](C)[C@H]1[C@@H]2OC(=O)/C=C/c1ccccc1 [Englerin B]"
measurement_type = "IC50"
unit_string = "µM"
result = 24.2

